Hey, just so you know, these numbers are from BindingDB's records for doi:10.1080/14756360400004565.

target: UniProt:P49841
Sequence (P49841 whole entry): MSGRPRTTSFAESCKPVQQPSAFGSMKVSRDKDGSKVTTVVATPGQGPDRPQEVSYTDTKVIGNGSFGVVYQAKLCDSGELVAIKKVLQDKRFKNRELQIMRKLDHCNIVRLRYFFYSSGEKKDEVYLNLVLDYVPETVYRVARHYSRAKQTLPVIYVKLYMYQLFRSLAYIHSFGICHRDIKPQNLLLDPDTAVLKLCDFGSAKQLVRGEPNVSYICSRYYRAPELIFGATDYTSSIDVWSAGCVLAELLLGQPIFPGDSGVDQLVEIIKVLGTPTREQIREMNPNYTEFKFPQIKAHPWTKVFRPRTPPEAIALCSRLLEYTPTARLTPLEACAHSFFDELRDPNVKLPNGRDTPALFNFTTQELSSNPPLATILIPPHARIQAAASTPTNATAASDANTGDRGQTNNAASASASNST
pIC50: −log10 of the molar value.
READOUT TYPE: pIC50

[[record]]
compound = "COc1ccc(-c2csc3c2-n2cccc2C3=O)cc1OC(=O)CCCC(=O)O"
measured_target = "UniProt:P49841"
readout_type = "pIC50"
endpoint_value = 4.96

[[record]]
compound = "COc1ccc(-c2csc3c2-n2cccc2C3=O)cc1OCc1ccccc1"
measured_target = "UniProt:P49841"
readout_type = "pIC50"
endpoint_value = "< 4.30"

[[record]]
compound = "CC(=O)Oc1ccc(-c2csc3c2-n2cccc2C3=O)cc1OC(C)=O"
measured_target = "UniProt:P49841"
readout_type = "pIC50"
endpoint_value = "< 4.30"

[[record]]
compound = "CCOC(=O)Oc1cc(-c2csc3c2-n2cccc2C3=O)ccc1OC"
measured_target = "UniProt:P49841"
readout_type = "pIC50"
endpoint_value = "< 4.30"

[[record]]
compound = "COc1ccc(-c2csc3c2-n2cccc2C3O)cc1OCc1ccccc1 (stereo not drawn) [Thienopyrrolizine derivative, 13e]"
measured_target = "UniProt:P49841"
readout_type = "pIC50"
endpoint_value = "< 4.30"

[[record]]
compound = "COc1ccc(-c2csc3c2-n2cccc2C3=O)cc1OC(=O)C(C)(C)C"
measured_target = "UniProt:P49841"
readout_type = "pIC50"
endpoint_value = "< 4.30"

[[record]]
compound = "CCOc1ccc(-c2csc3c2-n2cccc2C3=O)cc1"
measured_target = "UniProt:P49841"
readout_type = "pIC50"
endpoint_value = "< 4.30"


Now turn to the next compound.
Reported UniProt:P49841 pIC50 for item COc1ccc(-c2csc3c2-n2cccc2C3O)cc1O (stereo not drawn) [Thienopyrrolizine derivative, 13g] was 4.72
